Each recorded value in this set is attributed to ChEMBL document CHEMBL1155847.

SYSTEM TESTED: Acyl-CoA:cholesterol acyltransferase (Oryctolagus cuniculus, UniProt Q95214)
Sequence (Q95214 whole entry): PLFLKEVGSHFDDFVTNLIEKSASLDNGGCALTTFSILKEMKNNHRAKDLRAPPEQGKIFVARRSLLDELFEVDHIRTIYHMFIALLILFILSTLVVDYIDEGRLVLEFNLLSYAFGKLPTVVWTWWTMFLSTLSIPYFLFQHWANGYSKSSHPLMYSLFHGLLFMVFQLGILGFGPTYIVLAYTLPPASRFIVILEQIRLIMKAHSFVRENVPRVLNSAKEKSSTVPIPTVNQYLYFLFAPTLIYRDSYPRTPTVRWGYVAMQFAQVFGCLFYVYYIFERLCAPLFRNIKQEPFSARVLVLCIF
ASSAY DETAILS: Inhibition of normocholesterolemic rabbit liver ACAT
IC50 by entry:
# value in µM; strip the unit string

Example entries begin here.
{"MOLECULE": "CCCCCCCCN1CCc2c(C)c(CC(=O)O)c(C)c(NC(=O)C(C)(C)C)c21 [PACTIMIBE]", "IC50 [µM]": 1.2}
{"MOLECULE": "Cc1cc(C)c(NC(=O)C(C)(C)C)c2c1CCN2CCCCCCCCCC(=O)O", "IC50 [µM]": 5.5}
{"MOLECULE": "CC(C)c1cc(C(C)C)c(CC(=O)NS(=O)(=O)Oc2c(C(C)C)cccc2C(C)C)c(C(C)C)c1 [AVASIMIBE]", "IC50 [µM]": 7.6}

(Q) Name the recorded IC50 for CCCCCCCCN1CC(CCC(=O)O)c2c(C)cc(C)c(NC(=O)C(C)(C)C)c21 (stereo unspecified) .
(A) 5

* * *

SYSTEM TESTED: Acyl-CoA:cholesterol acyltransferase (Oryctolagus cuniculus)
Sequence (Q95214 whole entry): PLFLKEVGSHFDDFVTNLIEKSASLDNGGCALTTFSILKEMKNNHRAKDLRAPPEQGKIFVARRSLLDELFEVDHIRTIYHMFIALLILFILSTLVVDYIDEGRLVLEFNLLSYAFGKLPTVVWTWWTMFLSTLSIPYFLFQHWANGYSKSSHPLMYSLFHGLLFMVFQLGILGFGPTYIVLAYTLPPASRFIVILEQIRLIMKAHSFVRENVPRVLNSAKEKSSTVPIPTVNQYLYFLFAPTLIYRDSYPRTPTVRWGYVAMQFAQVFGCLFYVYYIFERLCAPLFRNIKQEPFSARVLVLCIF
ASSAY DETAILS: Inhibition of ACAT in microsomes from hyperlipidemic white rabbit macrophages assessed as esterified cholesterol accumulation
QUANTITY: pIC50
Answer as the number alone; pIC50 is minus log10 of concentration in mol/L.

(Q) Name the recorded pIC50 for "CCCCCCCCN1CCc2c(C)c(CC(=O)O)c(C)c(NC(=O)C(C)(C)C)c21" .
(A) 5.72

* * *

ASSAY DETAILS: Cmax in Beagle dog at 10 mg/kg, po
Assay type: ADME, organism-based, Canis lupus familiaris
Parameters: dose 10 mg/kg, route oral
PROTOCOL CONDITIONS: in vivo
QUANTITY: Cmax (µM)
# value in µM; strip the unit string

(Q) Name the recorded Cmax for CCCCCCCCN1CCc2c(C)c(CC(=O)O)c(C)c(NC(=O)C(C)(C)C)c21 [PACTIMIBE] .
(A) 26.8

* * *

ASSAY DETAILS: Solubility in water at pH 7.0
Assay type: physicochemical
QUANTITY: solubility (µg/mL)
# value in µg/mL; strip the unit string

{"COMPOUND": "CCCCCCCCN1CCc2c(C)c(CN)c(C)c(NC(=O)C(C)(C)C)c21.Cl.Cl", "QUANTITY": "solubility", "EXPERIMENTAL VALUE": 857}
{"COMPOUND": "CCCCCCCCN1CCc2c(C)cc(C)c(NC(=O)C(C)(C)C)c21.Cl", "QUANTITY": "solubility", "EXPERIMENTAL VALUE": 0.08}

(Q) Name the recorded solubility for CCCCCCCCN1CCc2c(C)c(CC(=O)O)c(C)c(NC(=O)C(C)(C)C)c21.CCCCCCCCN1CCc2c(C)c(CC(=O)O)c(C)c(NC(=O)C(C)(C)C)c21.O=S(=O)(O)O [PACTIMIBE SULFATE] .
(A) 1450

(Q) Name the recorded solubility for "Cc1cc(C)c(NC(=O)C(C)(C)C)c2c1CCN2CCCCCCCCCC(=O)O.Cl" .
(A) 732

(Q) Name the recorded solubility for "CCCCCCCCN1CCc2c(C)c(Cc3nnn[nH]3)c(C)c(NC(=O)C(C)(C)C)c21" .
(A) 66

(Q) Name the recorded solubility for "CCCCCCCCN1CCc2c(C)cc(C)c(NC(=O)C(C)(C)CCC(=O)O)c21.Cl" .
(A) 401

(Q) Name the recorded solubility for CCCCCCCCN1CC(CCC(=O)O)c2c(C)cc(C)c(NC(=O)C(C)(C)C)c21.Cl (configuration not stated) .
(A) 355
